Entries annotated with measured Östradiol-Konzentration
# test.system: Aromatase (Rattus norvegicus, UniProt P22443)
# Construct: Infantile weibliche Ratten reagieren auf PMSG (Pregnant Mare's Serum Gonadotropin)-Behandlung mit einheitlich erhöhter Steroidsynthese; from tissue; host or cells: living infantile female rats pretreated with PMSG
# Sequence (P22443 whole entry): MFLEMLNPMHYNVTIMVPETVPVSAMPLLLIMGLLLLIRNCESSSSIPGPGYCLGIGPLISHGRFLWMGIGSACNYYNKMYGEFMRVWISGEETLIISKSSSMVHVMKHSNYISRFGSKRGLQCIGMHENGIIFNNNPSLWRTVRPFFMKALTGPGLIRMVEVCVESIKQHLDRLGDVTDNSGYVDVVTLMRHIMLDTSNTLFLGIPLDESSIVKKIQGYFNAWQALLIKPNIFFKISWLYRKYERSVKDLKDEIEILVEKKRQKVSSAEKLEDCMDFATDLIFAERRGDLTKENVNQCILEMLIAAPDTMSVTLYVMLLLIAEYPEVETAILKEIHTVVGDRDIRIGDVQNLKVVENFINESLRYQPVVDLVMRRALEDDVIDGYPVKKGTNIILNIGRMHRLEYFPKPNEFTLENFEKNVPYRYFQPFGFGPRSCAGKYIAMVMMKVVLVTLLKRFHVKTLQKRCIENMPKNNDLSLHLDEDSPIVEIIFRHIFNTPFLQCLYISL
# method.description: PMSG test: effect on serum oestradiol concentration in PMSG-pretreated infantile female rats
# Format: in vivo, Ratte
# study.conditions: Dosis 0,1 mg/Tier 2 x s.c.; peripheral serum, PMSG-pretreated rat, 24 h after last PMSG; mean ± SD

Exam item: Give Östradiol-Konzentration (Aromatase (Rattus norvegicus, UniProt P22443)) of the following compound: CC(=O)O[C@H]([C@H]1CC(=O)[C@@]2(C)CC[C@H]3[C@@H](CCC4=CC(=O)C=C(C)[C@@]43C)[C@H]12)[C@H](C)OC(C)=O [C]
Marked response: 1,30±0,37 nMol/l

Exam item: Would you kindly repeat that for CC[C@H](OC(C)=O)[C@H](OC(C)=O)[C@H]1CC(=O)[C@@]2(C)CC[C@H]3[C@@H](CCC4=CC(=O)C=C(C)[C@@]43C)[C@H]12 [D] ?
Marked response: 0,54±0,11 nMol/l

Exam item: Would you kindly repeat that for C[C@]12CCC(=O)C(O)=C1CC[C@@H]1[C@@H]2CC[C@]2(C)C(=O)CC[C@@H]12 [A, 4-Hydroxy-4-androsten-3,17-dion, reference compound] ?
Marked response: 3,98±1,12 nMol/l

Exam item: Would you kindly repeat that for CC(=O)OCC[C@H]1CC(=O)[C@@]2(C)CC[C@H]3[C@@H](CCC4=CC(=O)C=C(C)[C@@]43C)[C@H]12 [B, reference compound] ?
Marked response: 2,11±0,39 nMol/l

----------
# test.system: Aromatase (Rattus norvegicus, UniProt P22443)
# Construct: Infantile weibliche Ratten reagieren auf PMSG (Pregnant Mare's Serum Gonadotropin)-Behandlung mit einheitlich erhöhter Steroidsynthese; from tissue; host or cells: living infantile female rats pretreated with PMSG
# method.description: PMSG test: effect on serum oestradiol concentration in PMSG-pretreated infantile female rats
# Type: in vivo, Ratte
# study.conditions: Dosis 0,3 mg/Tier 2 x s.c.; peripheral serum, PMSG-pretreated rat, 24 h after last PMSG; mean ± SD
quantity: Östradiol-Konzentration

Consider the following illustrative entries.
CC[C@H](OC(C)=O)[C@H](OC(C)=O)[C@H]1CC(=O)[C@@]2(C)CC[C@H]3[C@@H](CCC4=CC(=O)C=C(C)[C@@]43C)[C@H]12 : 0,88±0,15 nMol/l
CC(=O)OCC[C@H]1CC(=O)[C@@]2(C)CC[C@H]3[C@@H](CCC4=CC(=O)C=C(C)[C@@]43C)[C@H]12 [B, reference compound] : 0,62±0,13 nMol/l
C[C@]12CCC(=O)C(O)=C1CC[C@@H]1[C@@H]2CC[C@]2(C)C(=O)CC[C@@H]12 [A, 4-Hydroxy-4-androsten-3,17-dion, reference compound] : 3,84±0,84 nMol/l

Exam item: Give Östradiol-Konzentration (Aromatase (Rattus norvegicus, UniProt P22443)) of the following compound: `CC(=O)O[C@H]([C@H]1CC(=O)[C@@]2(C)CC[C@H]3[C@@H](CCC4=CC(=O)C=C(C)[C@@]43C)[C@H]12)[C@H](C)OC(C)=O`
Marked response: 0,68±0,32 nMol/l

----------
# test.system: Aromatase (Rattus norvegicus, UniProt P22443)
# Construct: Infantile weibliche Ratten reagieren auf PMSG (Pregnant Mare's Serum Gonadotropin)-Behandlung mit einheitlich erhöhter Steroidsynthese; from tissue; host or cells: living infantile female rats pretreated with PMSG
# method.description: PMSG test: effect on serum oestradiol concentration in PMSG-pretreated infantile female rats
# Type: in vivo, Ratte
# study.conditions: Dosis 1,0 mg/Tier 2 x s.c.; peripheral serum, PMSG-pretreated rat, 24 h after last PMSG; mean ± SD
quantity: Östradiol-Konzentration

C[C@]12CCC(=O)C(O)=C1CC[C@@H]1[C@@H]2CC[C@]2(C)C(=O)CC[C@@H]12 [A, 4-Hydroxy-4-androsten-3,17-dion, reference compound] : 1,94±0,62 nMol/l
CC[C@H](OC(C)=O)[C@H](OC(C)=O)[C@H]1CC(=O)[C@@]2(C)CC[C@H]3[C@@H](CCC4=CC(=O)C=C(C)[C@@]43C)[C@H]12 [D] : 0,41±0,09 nMol/l
CC(=O)OCC[C@H]1CC(=O)[C@@]2(C)CC[C@H]3[C@@H](CCC4=CC(=O)C=C(C)[C@@]43C)[C@H]12 [B, reference compound] : 0,54±0,07 nMol/l

With those in mind, consider the next compound.
Exam item: Fill blank: measured Östradiol-Konzentration of the compound CC(=O)O[C@H]([C@H]1CC(=O)[C@@]2(C)CC[C@H]3[C@@H](CCC4=CC(=O)C=C(C)[C@@]43C)[C@H]12)[C@H](C)OC(C)=O [C] is ____.
Marked response: 0,24±0,10 nMol/l
